The measurements presented in this section are drawn from ChEMBL document CHEMBL1130562.

# Proto-oncogene tyrosine-protein kinase Src (Homo sapiens, UniProt P12931): pIC50 values follow
# Sequence (P12931 2-536 limits assumed): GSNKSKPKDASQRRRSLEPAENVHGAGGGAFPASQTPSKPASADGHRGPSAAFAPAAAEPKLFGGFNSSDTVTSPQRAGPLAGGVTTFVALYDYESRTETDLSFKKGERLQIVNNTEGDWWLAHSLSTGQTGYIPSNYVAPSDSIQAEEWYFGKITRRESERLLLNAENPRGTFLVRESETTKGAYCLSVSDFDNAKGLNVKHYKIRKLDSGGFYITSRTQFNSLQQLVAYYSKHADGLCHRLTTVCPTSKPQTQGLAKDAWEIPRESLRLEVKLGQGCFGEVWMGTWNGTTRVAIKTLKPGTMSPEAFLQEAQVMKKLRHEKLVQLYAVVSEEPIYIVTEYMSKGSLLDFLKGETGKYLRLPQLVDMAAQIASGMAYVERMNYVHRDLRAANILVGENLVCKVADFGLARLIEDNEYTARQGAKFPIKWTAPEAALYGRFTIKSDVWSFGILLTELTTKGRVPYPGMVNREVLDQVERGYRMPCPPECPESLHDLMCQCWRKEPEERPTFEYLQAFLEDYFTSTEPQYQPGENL
# pIC50 is unitless: minus log10 of the molar concentration; print number only

Query :: Returns the measured pIC50 for the input molecule. Input: CN1CCN(Cc2ccc(C(=O)Nc3cccc(Nc4nccc(-c5cccnc5)n4)c3)cc2)CC1
Result :: 5.11

Query :: // next record NCCCNC(=O)c1cccc(Nc2nccc(-c3cccnc3)n2)c1
Result :: 5.01

Query :: // next record O=C(Nc1cccc(Nc2nccc(-c3cccnc3)n2)c1)c1cccnc1
Result :: 5.05

----------
Measurement target: Protein kinase C delta type (Homo sapiens, UniProt Q05655)
Sequence (Q05655 whole entry): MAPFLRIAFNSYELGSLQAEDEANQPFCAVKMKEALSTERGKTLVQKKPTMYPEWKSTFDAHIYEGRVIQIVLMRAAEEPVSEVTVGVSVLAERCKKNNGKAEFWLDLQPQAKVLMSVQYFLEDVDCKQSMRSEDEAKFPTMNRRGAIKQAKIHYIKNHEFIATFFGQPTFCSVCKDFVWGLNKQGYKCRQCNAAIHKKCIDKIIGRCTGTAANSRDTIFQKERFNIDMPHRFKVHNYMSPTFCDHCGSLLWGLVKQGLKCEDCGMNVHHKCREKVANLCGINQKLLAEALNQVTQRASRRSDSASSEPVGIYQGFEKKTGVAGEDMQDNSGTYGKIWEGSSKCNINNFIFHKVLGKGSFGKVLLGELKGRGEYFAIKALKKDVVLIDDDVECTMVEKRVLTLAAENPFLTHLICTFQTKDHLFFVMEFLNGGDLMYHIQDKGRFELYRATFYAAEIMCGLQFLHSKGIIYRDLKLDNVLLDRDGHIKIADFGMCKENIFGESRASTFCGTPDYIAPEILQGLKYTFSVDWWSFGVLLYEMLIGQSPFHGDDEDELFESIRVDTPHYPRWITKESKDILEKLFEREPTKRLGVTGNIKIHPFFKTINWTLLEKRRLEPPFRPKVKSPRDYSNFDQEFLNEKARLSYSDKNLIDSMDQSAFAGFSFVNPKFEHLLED
Experiment description: Inhibition of protein kinase C delta.
Measure name: IC50

N#Cc1ccc(C(=O)Nc2cccc(Nc3nccc(-c4cccnc4)n3)c2)cc1: > 500 µM

Query :: Returns the measured IC50 for the input molecule. Input: O=C(O)c1cccc(Nc2nccc(-c3cccnc3)n2)c1
Result :: > 100 µM

Query :: // next record Nc1cccc(Nc2nccc(-c3cccnc3)n2)c1
Result :: > 500 µM

Query :: // next record O=[N+]([O-])c1cccc(Nc2nccc(-c3ccncc3)n2)c1
Result :: > 500 µM

Query :: // next record O=[N+]([O-])c1cccc(Nc2nccc(-c3cccnc3)n2)c1
Result :: > 500 µM

Query :: // next record COc1ccccc1C(=O)Nc1ccc(C)c(Nc2nccc(-c3cccnc3)n2)c1
Result :: > 100 µM

Query :: // next record FC(F)C(F)(F)Oc1cccc(Nc2nccc(-c3ccncc3)n2)c1
Result :: > 100 µM

Query :: // next record Cc1ccc(NC(=O)c2ccc(Cl)cc2)cc1Nc1nccc(-c2cccnc2)n1
Result :: > 100 µM

----------
# Tyrosine-protein kinase ABL1 (Homo sapiens, UniProt P00519): IC50 values follow
# Sequence (P00519 whole entry, looked up): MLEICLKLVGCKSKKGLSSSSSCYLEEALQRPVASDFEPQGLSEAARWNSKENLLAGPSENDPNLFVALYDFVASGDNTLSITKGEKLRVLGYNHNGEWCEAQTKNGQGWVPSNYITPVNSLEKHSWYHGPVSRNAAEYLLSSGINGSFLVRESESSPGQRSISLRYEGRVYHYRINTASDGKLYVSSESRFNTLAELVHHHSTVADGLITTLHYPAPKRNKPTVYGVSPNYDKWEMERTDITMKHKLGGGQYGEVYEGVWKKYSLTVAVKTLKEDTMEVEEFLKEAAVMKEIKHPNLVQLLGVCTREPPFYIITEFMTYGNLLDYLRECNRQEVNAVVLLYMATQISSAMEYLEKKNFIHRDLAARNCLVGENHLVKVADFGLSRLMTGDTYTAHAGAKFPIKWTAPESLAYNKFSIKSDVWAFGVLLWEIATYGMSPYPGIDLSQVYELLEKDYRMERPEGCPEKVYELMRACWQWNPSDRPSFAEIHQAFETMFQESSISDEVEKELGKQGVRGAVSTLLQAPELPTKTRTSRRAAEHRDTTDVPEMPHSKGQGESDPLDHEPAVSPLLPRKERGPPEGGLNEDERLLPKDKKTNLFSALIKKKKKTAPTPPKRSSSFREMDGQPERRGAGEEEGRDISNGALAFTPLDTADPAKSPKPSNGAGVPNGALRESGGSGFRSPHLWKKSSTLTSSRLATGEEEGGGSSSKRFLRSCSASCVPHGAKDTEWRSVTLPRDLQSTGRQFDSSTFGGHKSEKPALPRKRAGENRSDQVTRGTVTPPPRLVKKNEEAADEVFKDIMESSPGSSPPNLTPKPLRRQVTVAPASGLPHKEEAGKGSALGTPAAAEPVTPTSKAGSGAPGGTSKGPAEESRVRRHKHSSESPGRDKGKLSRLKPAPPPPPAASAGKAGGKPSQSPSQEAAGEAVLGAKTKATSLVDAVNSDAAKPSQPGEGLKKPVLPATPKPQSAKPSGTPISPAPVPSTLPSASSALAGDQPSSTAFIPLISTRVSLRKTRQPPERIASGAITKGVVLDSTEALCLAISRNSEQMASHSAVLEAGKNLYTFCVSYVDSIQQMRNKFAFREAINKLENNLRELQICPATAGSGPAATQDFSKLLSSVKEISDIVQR
Output spec: scalar in nM, unitless text.

O=C(Nc1cccc(Nc2nccc(-c3cccnc3)n2)c1)c1ccccc1: 400
COc1ccccc1C(=O)Nc1ccc(C)c(Nc2nccc(-c3cccnc3)n2)c1: 800

Query :: Returns the measured IC50 for the input compound. Input: O=C(Nc1cccc(Nc2nccc(-c3cccnc3)n2)c1)c1cccnc1
Result :: 150

----------
Measurement target: Platelet-derived growth factor receptor (Homo sapiens, UniProt P09619+P16234)
Experiment description: Inhibition of the platelet-derived growth factor receptor.
The following compounds are listed with their measured IC50 values.

c1cc(Nc2nccc(-c3cccnc3)n2)cc(OCCn2ccnc2)c1: > 10 µM
O=C(Nc1cccc(Nc2nccc(-c3cccnc3)n2)c1)c1ccncc1: > 100 µM

Okay, now this compound:
Query :: Please provide the recorded IC50 for NCCCNC(=O)c1cccc(Nc2nccc(-c3cccnc3)n2)c1 , tested on Platelet-derived growth factor receptor (Homo sapiens, UniProt P09619+P16234).
Result :: > 10 µM

----------
Measurement target: cAMP-dependent protein kinase (PKA) (Homo sapiens, UniProt P22694+P17612+P22612)
Experiment description: Inhibition of protein kinase A.
Format: protein assay, unidentified
Measure name: IC50

// worked examples, IC50 included
Cc1ccc(C(=O)Nc2ccc(C)c(Nc3nccc(-c4cccnc4)n3)c2)cc1: > 100 µM
O=[N+]([O-])c1cccc(Nc2nccc(-c3cccnc3)n2)c1: > 500 µM
Nc1cccc(Nc2nccc(-c3cccnc3)n2)c1: 6 µM
NCCCn1ccc2c(-c3ccnc(Nc4cccc(OC(F)(F)C(F)F)c4)n3)cccc21: 2 µM
COC(=O)c1cccc(Nc2nccc(-c3cccnc3)n2)c1: > 500 µM
COc1ccccc1C(=O)Nc1ccc(C)c(Nc2nccc(-c3cccnc3)n2)c1: > 500 µM

Okay, now this compound:
Query :: Returns the measured IC50 for the input compound. Input: Cc1ccc(N)cc1Nc1nccc(-c2cccnc2)n1
Result :: > 500 µM

----------
Measurement target: Platelet-derived growth factor receptor (Homo sapiens, UniProt P09619+P16234)
Experiment description: Inhibition of the platelet-derived growth factor receptor.
Measure name: IC50

// worked examples, IC50 included
Nc1cccc(Nc2nccc(-c3cccnc3)n2)c1: > 100 µM
O=C(O)c1ccccc1C(=O)Nc1cccc(Nc2nccc(-c3cccnc3)n2)c1: > 100 µM
Clc1cccc(Nc2nccc(-c3cccnc3)n2)c1: > 10 µM
O=[N+]([O-])c1cccc(Nc2nccc(-c3cccnc3)n2)c1: > 100 µM
FC(F)C(F)(F)Oc1cccc(Nc2nccc(-c3ccc(Cl)cc3)n2)c1: > 10 µM

Query :: Returns the measured IC50 for the input compound. Input: FC(F)C(F)(F)Oc1cccc(Nc2nccc(-c3ccncc3)n2)c1
Result :: > 10 µM

Query :: // next record O=C(Nc1cccc(Nc2nccc(-c3cccnc3)n2)c1)c1ccccn1
Result :: > 100 µM
